Recorded inhibition values for a group of compounds are listed next.
target: Mitogen-activated protein kinase kinase kinase 5 (Homo sapiens) (UniProt Q99683); experiment: blockers of MAP3K5 kinase activity – biochemical, AlphaScreen, primary screen (AID 1159602); conditions: AlphaScreen MKK6 phosphorylation by ASK1, luminescence; at 7.44 µM; active compounds read high;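 also: 0% = median of compound wells and 100% = no enzyme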
Sequence (Q99683 whole entry, looked up): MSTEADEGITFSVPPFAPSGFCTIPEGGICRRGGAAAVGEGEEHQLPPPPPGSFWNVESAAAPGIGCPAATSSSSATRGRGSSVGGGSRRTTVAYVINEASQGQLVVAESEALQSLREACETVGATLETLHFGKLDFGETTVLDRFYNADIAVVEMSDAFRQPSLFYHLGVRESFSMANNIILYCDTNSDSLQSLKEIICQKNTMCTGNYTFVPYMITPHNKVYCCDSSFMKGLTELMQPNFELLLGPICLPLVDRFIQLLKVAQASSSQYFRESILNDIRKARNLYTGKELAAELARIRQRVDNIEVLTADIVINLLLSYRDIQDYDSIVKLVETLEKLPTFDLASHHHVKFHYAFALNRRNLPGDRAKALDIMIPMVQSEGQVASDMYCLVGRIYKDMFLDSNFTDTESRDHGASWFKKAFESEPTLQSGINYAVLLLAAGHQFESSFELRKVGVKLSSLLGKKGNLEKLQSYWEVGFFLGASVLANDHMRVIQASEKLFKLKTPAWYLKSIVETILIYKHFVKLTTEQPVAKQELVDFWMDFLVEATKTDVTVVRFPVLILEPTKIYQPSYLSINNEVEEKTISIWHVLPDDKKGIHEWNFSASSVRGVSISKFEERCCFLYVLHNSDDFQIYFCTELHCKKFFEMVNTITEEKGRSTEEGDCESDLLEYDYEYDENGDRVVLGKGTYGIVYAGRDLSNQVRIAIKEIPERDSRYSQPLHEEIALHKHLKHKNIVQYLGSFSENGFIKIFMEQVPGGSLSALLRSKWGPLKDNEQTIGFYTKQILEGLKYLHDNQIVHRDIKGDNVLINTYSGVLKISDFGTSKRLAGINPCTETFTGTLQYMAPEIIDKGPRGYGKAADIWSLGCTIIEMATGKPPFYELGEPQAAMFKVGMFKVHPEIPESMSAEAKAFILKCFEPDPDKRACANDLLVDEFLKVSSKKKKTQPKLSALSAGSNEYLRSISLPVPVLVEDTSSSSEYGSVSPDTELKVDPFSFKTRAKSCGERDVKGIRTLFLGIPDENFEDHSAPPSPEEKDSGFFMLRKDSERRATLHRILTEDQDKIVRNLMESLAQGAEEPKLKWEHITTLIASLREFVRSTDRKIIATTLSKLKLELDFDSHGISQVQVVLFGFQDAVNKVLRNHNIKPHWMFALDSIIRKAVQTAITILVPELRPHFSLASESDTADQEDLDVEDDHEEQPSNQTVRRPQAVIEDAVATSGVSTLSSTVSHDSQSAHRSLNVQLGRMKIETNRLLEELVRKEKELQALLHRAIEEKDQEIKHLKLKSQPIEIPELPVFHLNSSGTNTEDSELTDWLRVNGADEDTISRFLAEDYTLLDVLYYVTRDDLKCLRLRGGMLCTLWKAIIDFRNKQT
In all, about 22,000 compounds went through this assay and about 220 (1%) were called active. Shown is part of a subset that was picked to be rich in actives.
resultType: inhibition (%)

COc1cc(NC(=O)c2ccnc(N3CCC(N4CCOCC4)CC3)c2)cc(OC)c1OC ... 1.9
c1ccc(Oc2ccc(Nc3nc(Nc4ccccn4)nc4c3ncn4-c3ccsc3)cc2)cc1 ... 2.93
O=C(c1cccnc1)N1CCCC(Nc2ccc3[nH]ncc3c2)C1 (stereo not given) ... -32
CC(C)n1cnc2c(NC3CCN(Cc4ccccc4)CC3)nc(Nc3ccc(N4CCOCC4)cc3)nc21 ... 45
Nc1nc(NCc2cccc(C(F)(F)F)c2)cc(NCc2ccc3c(c2)OCO3)n1 ... -4.13
CCN(CC)CCNC(=O)c1ccc(Nc2cc(Nc3ccccc3C(=O)NC)c(C(F)(F)F)cn2)c(C)c1 ... -5.11
c1nc(NC2CC2)c2[nH]c(N3CCN(Cc4ccc5c(c4)OCO5)CC3)nc2n1 ... -10.7
COc1ccc(CCNc2nc(-c3ccccc3)nc3c2ncn3CCN2CCCC2=O)cc1 ... -23.4
O=C(Cc1cn(-c2ccc(N3CCC(N4CCOCC4)CC3)nn2)c2ccccc12)NCCCN1CCCC1=O ... -20.2
CC(C)N(CCNC(=O)c1ccnc(Nc2ccc(C(F)(F)F)cc2)c1)C(C)C ... 7.8

====

molecular target: Mitogen-activated protein kinase kinase kinase 5 (Homo sapiens) (UniProt Q99683); test: blockers of MAP3K5 kinase activity – biochemical, AlphaScreen, primary screen (AID 1159602); conditions: AlphaScreen MKK6 phosphorylation by ASK1, luminescence; at 7.44 µM; active compounds read high;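 also: 0% = median of compound wells and 100% = no enzyme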
Screen size: about 22,000 compounds; about 220 (1%) were called active. Shown is part of a subset that was picked to be rich in actives.
Recorded inhibition values for a group of compounds are listed next.
resultType: inhibition (%)

CC(C)(C)OC(=O)N1CCC(CC(=O)Nc2ccnn2-c2cccc(C(=O)Nc3ccc(N4CCOCC4)cc3)c2)CC1 ... 7.81
COc1cc2nc(Nc3nccc4ccccc34)nc(Nc3ccccc3)c2cc1OC ... -29.2
O=C1CCCN1CCn1cnc2c(NC3CC3)nc(NCc3ccc4c(c3)OCO4)nc21 ... -15.8
c1ccc(CN2CCC(Nc3nc(N4CCc5ccccc5C4)nc4c3ncn4-c3ccsc3)CC2)cc1 ... 9.04
Cc1noc(C)c1-c1nc(NC2CC2)c2ncn(-c3ccsc3)c2n1 ... -7.13

====

target: Mitogen-activated protein kinase kinase kinase 5 (Homo sapiens) (UniProt Q99683); experiment: blockers of MAP3K5 kinase activity – biochemical, AlphaScreen, primary screen (AID 1159602); conditions: AlphaScreen MKK6 phosphorylation by ASK1, luminescence; at 7.44 µM; active compounds read high;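 also: 0% = median of compound wells and 100% = no enzyme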
The campaign covered roughly 22,000 compounds. About 220 (1%) were called active. Shown is part of a subset that was picked to be rich in actives.
Recorded inhibition values for a group of compounds are listed next.
resultType: inhibition (%)

COc1ccc(CCNc2cc(-c3ccc(OC)cc3)nc(N)n2)cc1 ... -5.04
FC(F)(F)c1ccc(Cn2cnc3c(NCc4nc5ccccc5[nH]4)nc(N4CCOCC4)nc32)cc1 ... -1.96
CCNc1nc(NCCOc2ccccc2)c2ncn(Cc3ccc(C(F)(F)F)cc3)c2n1 ... -5.64
O=C(NCCN1CCOCC1)c1cccc(-n2ncc3cc(Nc4ccccc4F)ccc32)n1 ... -7.35
COc1ccc(-c2cccc(C(=O)Nc3ccccc3)n2)cn1 ... -3.52
CCN(CC)c1nc(NCCCN2CCCC2=O)nc(N2CCC(N3CCOCC3)CC2)n1 ... 2.42
COc1ccc(-c2nc(Nc3cc(OC)c(OC)c(OC)c3)c3ncn(C(C)C)c3n2)cc1 ... 9.01
CC(=O)Nc1ccc(Nc2ccnc(N3CCC(N4CCOCC4)CC3)n2)cc1 ... -0.1
Nc1nc(NCc2nc3ccccc3[nH]2)cc(N2CCN(Cc3ccc4c(c3)OCO4)CC2)n1 ... 1.22
c1ccc(OCCNc2cc(-c3ccccc3)ncn2)cc1 ... -16.6

====

target: Mitogen-activated protein kinase kinase kinase 5 (Homo sapiens); assay: blockers of MAP3K5 kinase activity – biochemical, AlphaScreen, primary screen (AID 1159602); conditions: AlphaScreen MKK6 phosphorylation by ASK1, luminescence; at 7.44 µM;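 also: 0% = median of compound wells and 100% = no enzyme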
Among all 22,000 compounds or so, about 220 (1%) were called active. Cut-off read from the data, not from the text of the source: active = inhibition above about 35%; inactive = the rest. The sample as a whole holds a higher share of actives than the screen did.
Labels: T = active, F = inactive

O=C(NC1CC1)c1ccc(-c2ncc(C(=O)Nc3ccc(N4CCOCC4)cc3)s2)cc1 ... F
CC(=O)Nc1ccc(Nc2ncnc3c2nc(NCCN2CCOCC2)n3C(C)C)cc1 ... F
O=C(NCCN1CCOCC1)c1ccc2nc(N3CCCC3CO)sc2c1 (stereo not given) ... F
NC(=O)c1ccc(-c2nc(NCCO)c3ncn(-c4ccsc4)c3n2)cc1 ... F
COc1nc(Nc2ccccc2)nc(-c2csc3ccccc23)n1 ... F
Cc1nn(C)c(C)c1-c1nc(NCCc2ccc(O)cc2)c2ncn(CCN3CCCC3=O)c2n1 ... F
O=C(NC1CC1)c1ccc(-c2nc(C(=O)NCc3cccc(C(F)(F)F)c3)cs2)cc1 ... F
c1ccc2[nH]c(CNc3ncnc4nc(Nc5ccncn5)[nH]c34)nc2c1 ... F
O=C(Nc1ccc(N2CCOCC2)cc1)c1cccc(N2CCC(N3CCOCC3)CC2)n1 ... F
COc1cc(Nc2nc(N3CCc4ccccc4C3)nc3c2ncn3-c2ccccc2)cc(OC)c1OC ... T

====

biological target: Mitogen-activated protein kinase kinase kinase 5 (Homo sapiens) (UniProt Q99683); assay: blockers of MAP3K5 kinase activity – biochemical, AlphaScreen, primary screen (AID 1159602); conditions: AlphaScreen MKK6 phosphorylation by ASK1, luminescence; at 7.44 µM;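 also: 0% = median of compound wells and 100% = no enzyme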
The whole screen tested about 22,000 compounds, of which about 220 (1%) were called active. No stated cut-off is given here; in the data, active means inhibition above about 35%; inactive means the rest. This is one part of a sample in which actives are shown more often than they occur.
Labels: Yes = active, No = inactive

CCCNC(=O)c1csc(Nc2nc3ccccc3n2C)n1 ... No
Cc1cc(Nc2ccc3c(c2)OCO3)nc(Nc2cccc(N(C)C)c2)n1 ... Yes
COc1ccc(CCNc2ncnc3c2nc(Nc2cccc(N(C)C)c2)n3C(C)C)cc1 ... No
CNC(=O)c1cc(F)ccc1Nc1cc(Nc2ccc3c(c2)CCC(=O)N3)ncc1C(F)(F)F ... No
NC(=O)c1cccc(N2CCCC2CO)n1 (stereo unspecified) ... No
COc1ccc(CCNc2cc(C)nc(Nc3cccc(N(C)C)c3)n2)cc1 ... Yes
O=C(NCc1ccccc1)c1ccnc(Nc2nccc3ccccc23)c1 ... No
Cc1noc(C)c1-c1cc(C(=O)NCc2cccc(C(F)(F)F)c2)ccn1 ... No
Cn1nccc1-c1cc(F)cc(-c2ccnc(Nc3ccc(-n4cnc(N5CCOCC5)n4)cc3)n2)c1 ... No
O=C(NC1CC1)c1ccc(-c2ccc(C(=O)NCc3cccc(C(F)(F)F)c3)s2)cc1 ... No
c1ccc(Nc2nccc(Nc3ccc(N4CCOCC4)cc3)n2)cc1 ... No
Cc1cc(Nc2ccccc2)nc(NCc2cccnc2)n1 ... No
O=C([C@@H](O)CSc1ccc(Br)cc1)N1CCC(Nc2ccc3[nH]ncc3c2)CC1 ... No
CC(=O)Nc1ccc(Nc2nc(N3CCc4ccccc4C3)nc3c2ncn3C(C)C)cc1 ... No
CCCNc1nc(N2CCCC(C(=O)N(CC)CC)C2)nc2c1ncn2Cc1ccc(C(F)(F)F)cc1 (stereo unspecified) ... No
CCN(CC)C(=O)C1CCCN(c2nc(Nc3ccc(NC(C)=O)cc3)c3ncn(C4CCCCC4)c3n2)C1 (stereo unspecified) ... No
CN(C)c1cccc(Nc2ncc(C(=O)Nc3ccc4c(c3)OCO4)s2)c1 ... No
Nc1cccc(-c2nc(NCc3nc4ccccc4[nH]3)c3ncn(Cc4ccc(C(F)(F)F)cc4)c3n2)c1 ... No
Cc1ncn(-c2ccc(Nc3nccc(N4CCc5[nH]ncc5C4)n3)cc2)n1 ... No
c1nc(NC2CC2)c2[nH]c(N3CCC(N4CCOCC4)CC3)nc2n1 ... No
CC(=O)Nc1ccc(Nc2nc(Nc3ccc(-n4ccnc4)cc3)nc3c2ncn3-c2ccsc2)cc1 ... No
CCNc1nc(C(=O)NCc2ccccc2)cs1 ... No
COc1cc(Nc2ncnc3c2nc(N2CCN(Cc4ccc5c(c4)OCO5)CC2)n3C(C)C)cc(OC)c1OC ... No
c1csc(-c2ccnc(Nc3ccc(N4CCOCC4)cc3)n2)c1 ... No
O=C(NCC(O)c1ccc(Br)cc1)c1cn(-c2cccc3c(=O)[nH]ccc23)nn1 (stereo unspecified) ... No
Nc1nc(NCCCN2CCCC2=O)cc(Nc2cnccn2)n1 ... No
Cc1cnc(N2CCc3ccccc3C2)nc1NCCN(C(C)C)C(C)C ... No
CC(=O)Nc1ccc(NC(=O)c2csc(N3CCC(N4CCOCC4)CC3)n2)cc1 ... No
CCNc1nc(C)cc(Nc2ccc(N3CCOCC3)cc2)n1 ... No
CCCNc1ncnc2c1nc(N1CCN(c3ccccn3)CC1)n2C(C)C ... No
O=C(NCc1cccc(C(F)(F)F)c1)c1csc(NCc2ccc3c(c2)OCO3)n1 ... No
COc1cc(Nc2nc(C)cc(N)n2)cc(OC)c1OC ... No
COc1cc2nc(Cl)nc(NC3CC3)c2cc1OC ... No
COc1ccc2c(c1)C[C@H](C(=O)Nc1ccc(-c3cn[nH]c3)cc1N(C)CCN(C)C)NC2 ... No
O=C(NCCO)c1ccc2nc(NCCN3CCOCC3)sc2c1 ... No
CCN(CC)c1nc(NCc2nc3ccccc3[nH]2)nc(N2CCCC2CO)n1 (stereo unspecified) ... No
